- system.under.test: Retinoic acid receptor alpha (Homo sapiens) (UniProt P10276)
- Sequence (P10276 whole entry, looked up): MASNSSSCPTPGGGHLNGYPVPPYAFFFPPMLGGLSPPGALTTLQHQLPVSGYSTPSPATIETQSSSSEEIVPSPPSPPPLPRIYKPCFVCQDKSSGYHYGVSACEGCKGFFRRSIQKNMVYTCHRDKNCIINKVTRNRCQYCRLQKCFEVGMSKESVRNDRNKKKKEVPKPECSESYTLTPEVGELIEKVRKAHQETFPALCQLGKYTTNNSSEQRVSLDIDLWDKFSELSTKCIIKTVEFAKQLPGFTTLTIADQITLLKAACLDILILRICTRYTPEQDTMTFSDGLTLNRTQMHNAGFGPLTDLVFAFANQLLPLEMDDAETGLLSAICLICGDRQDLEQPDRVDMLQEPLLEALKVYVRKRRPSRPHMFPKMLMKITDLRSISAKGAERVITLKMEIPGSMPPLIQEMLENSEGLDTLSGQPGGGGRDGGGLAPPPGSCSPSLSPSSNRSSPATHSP
- run.description: ATG_RARa_TRANS: Attagene TRANS-FACTORIAL HepG2 Assay for human Retinoic Acid Receptor alpha (RARa) (AID 2283005)
Records with an inconclusive call do not appear. Activity calls are given as the source filed them. Rule for the calls: active = hit-call score of the fitted dose curve at least 0.9, where 1 is the maximum; inconclusive = response in the unintended direction; inactive = score below 0.9.
Outcome codes: active, inactive

>>> group("CCCCN(CC)c1c([N+](=O)[O-])cc(C(F)(F)F)cc1[N+](=O)[O-]")
"inactive"
>>> group("CC(C1CC1)C(O)(Cn1cncn1)c1ccc(Cl)cc1 (centres undefined)")
"inactive"
>>> group("COP(=O)(OC)OC(Br)C(Cl)(Cl)Br (centres undefined)")
"inactive"
>>> group("O=[N+]([O-])c1cc(C(F)(F)F)c(Cl)c([N+](=O)[O-])c1Nc1ncc(C(F)(F)F)cc1Cl")
"inactive"
>>> group("CCOP(=S)(Oc1cnc(C(C)(C)C)nc1)OC(C)C (centres undefined)")
"inactive"
>>> group("COP(=O)(OC)C(O)C(Cl)(Cl)Cl (centres undefined)")
"active"
>>> group("CC(Oc1cccc(Cl)c1)C(=O)O (centres undefined)")
"inactive"
>>> group("C#CC(C)(C)NC(=O)c1cc(Cl)cc(Cl)c1")
"inactive"
>>> group("CCOC(=O)COc1cc(-c2nn(C)c(OC(F)F)c2Cl)c(F)cc1Cl")
"inactive"

====

- system.under.test: rat CYP3A2, Cyp3a2 (gene 266682)
- run.description: NVS_ADME_rCYP3A2: NovaScreen (NVS) CYP450-related Enzyme Activity (ADME) Assay for rat CYP3A2 (AID 2283128)
Active and inactive are the calls of the source. Rule for the calls: active = hit-call score of the fitted dose curve at least 0.9, where 1 is the maximum; inconclusive = response in the unintended direction; inactive = score below 0.9.
Outcome codes: 1.0 for active, 0.0 for inactive

>>> group("CSC1=N[C@@](C)(c2ccccc2)C(=O)N1Nc1ccccc1")
1.0
>>> group("CCOP(=O)(SC(C)CC)N1CCSC1=O (stereo unspecified)")
1.0
>>> group("C#CCC1=C(C)C(OC(=O)C2C(C=C(C)C)C2(C)C)CC1=O (stereo unspecified)")
1.0
>>> group("CCc1cccc(C)c1N(C(=O)CCl)C(C)COC (stereo unspecified)")
1.0
>>> group("CNc1cnn(-c2cccc(C(F)(F)F)c2)c(=O)c1Cl")
0.0
>>> group("CC[C@H](C)[C@H]1O[C@]2(C=C[C@@H]1C)C[C@@H]1C[C@@H](C/C=C(\\C)[C@@H](O[C@H]3C[C@H](OC)[C@@H](O[C@H]4C[C@H](OC)[C@@H](NC)[C@H](C)O4)[C@H](C)O3)[C@@H](C)/C=C/C=C3\\CO[C@@H]4[C@H](O)C(C)=C[C@@H](C(=O)O1)[C@]34O)O2")
1.0

====

- system.under.test: PGR (gene 5241)
- run.description: NVS_NR_hPR: NovaScreen (NVS) Nuclear Receptor Binding Assay for human Progestron Receptor (PR) (AID 2283360);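 note: active means loss of bound radioligand signal versus DMSO baseline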
Records with an inconclusive call do not appear. Active and inactive are the calls of the source. Rule for the calls: active = hit-call score of the fitted dose curve at least 0.9, where 1 is the maximum; inconclusive = response in the unintended direction; inactive = score below 0.9.
Outcome codes: true (1) = active, false (0) = inactive

>>> group("CNC(=O)ON=C(C)SC")
"false (0)"
>>> group("CCOC(=O)CC(SP(=O)(OC)OC)C(=O)OCC (configuration not stated)")
"false (0)"
>>> group("CC[C@H](C)[C@H]1O[C@]2(C=C[C@@H]1C)C[C@@H]1C[C@@H](C/C=C(\\C)[C@@H](O[C@H]3C[C@H](OC)[C@@H](O[C@H]4C[C@H](OC)[C@@H](NC)[C@H](C)O4)[C@H](C)O3)[C@@H](C)/C=C/C=C3\\CO[C@@H]4[C@H](O)C(C)=C[C@@H](C(=O)O1)[C@]34O)O2")
"false (0)"
>>> group("CCOP(=O)(OCC)Oc1cc(C)nc(C(C)C)n1")
"false (0)"
>>> group("CCC(CC)Nc1c([N+](=O)[O-])cc(C)c(C)c1[N+](=O)[O-]")
"false (0)"
>>> group("CC(COc1ccc(Oc2ccccc2)cc1)Oc1ccccn1 (configuration not stated)")
"false (0)"
>>> group("CNc1cnn(-c2cccc(C(F)(F)F)c2)c(=O)c1Cl")
"false (0)"
>>> group("C[Si](Cn1cncn1)(c1ccc(F)cc1)c1ccc(F)cc1")
"false (0)"
>>> group("CCOP(=S)(OCC)Oc1ccc2c(C)c(Cl)c(=O)oc2c1")
"true (1)"
>>> group("CCOP(=S)(OCC)Oc1cc(C)nc(C(C)C)n1")
"false (0)"
>>> group("CC1(C(=O)Nc2ccc(O)c(Cl)c2Cl)CCCCC1")
"false (0)"
>>> group("CCCSP(=O)(OCC)SCCC")
"false (0)"

====

- Read-out: Interferon-gamma inducible Protein 10 (IP10), CXCL10 (gene 3627)
- run.description: BSK_KF3CT_IP10: BioMAP Diversity Plus: KF3CT Assay for Interferon-gamma inducible Protein 10 (IP10) Biomarker Activity (AID 2283068)
- stated.conditions: primary human keratinocytes with fibroblasts; actives raise or lower the signal
Calls of active or inactive are those of the source. Rule for the calls: active = hit-call score of the fitted dose curve at least 0.9, where 1 is the maximum; inactive = score below 0.9.
Outcome codes: active, inactive

>>> group("CC(Oc1cccc(Cl)c1)C(=O)O (stereo unspecified)")
"inactive"
>>> group("COc1cc(OC)nc(Sc2cccc(Cl)c2C(=O)O)n1")
"inactive"
>>> group("CCCSP(=O)(OCC)Oc1ccc(Br)cc1Cl (stereo unspecified)")
"inactive"
>>> group("Cc1nn(-c2cc(NS(C)(=O)=O)c(Cl)cc2Cl)c(=O)n1C(F)F")
"inactive"
>>> group("COc1cccc(C(=O)NN(C(=O)c2cc(C)cc(C)c2)C(C)(C)C)c1C")
"inactive"
>>> group("CC(C)=CC1C(C(=O)OCN2C(=O)C3=C(CCCC3)C2=O)C1(C)C (stereo unspecified)")
"inactive"
>>> group("CCCCOC(=O)[C@@H](C)Oc1ccc(Oc2ccc(C#N)cc2F)cc1")
"inactive"
>>> group("CCCCN(CC)c1c([N+](=O)[O-])cc(C(F)(F)F)cc1[N+](=O)[O-]")
"active"
>>> group("CCOC(=O)CC(SP(=O)(OC)OC)C(=O)OCC (stereo unspecified)")
"inactive"
>>> group("CCc1cnc(C2=NC(C)(C(C)C)C(=O)N2)c(C(=O)O)c1 (stereo unspecified)")
"inactive"
>>> group("CCOP(=S)(OCC)Oc1ccc([N+](=O)[O-])cc1")
"active"
>>> group("CCOC(=O)COc1cc(-c2nn(C)c(OC(F)F)c2Cl)c(F)cc1Cl")
"inactive"
>>> group("CCOP(=O)(SC(C)CC)N1CCSC1=O (stereo unspecified)")
"active"
>>> group("CNC(=O)ON=C(C)SC")
"inactive"
>>> group("CCOP(=S)(OCC)SCCSCC")
"active"
>>> group("CSc1nc(NC(C)C)nc(NC(C)C)n1")
"inactive"
>>> group("CCOP(=S)(OCC)Oc1ccc2c(C)c(Cl)c(=O)oc2c1")
"inactive"
>>> group("COP(=O)(OC)SCn1c(=O)oc2cc(Cl)cnc21")
"active"
>>> group("CCOP(=S)(OCC)OC(Cl)C(Cl)(Cl)Cl (stereo unspecified)")
"inactive"
>>> group("FC(F)C(F)(F)OCC(Cn1cncn1)c1ccc(Cl)cc1Cl (stereo unspecified)")
"inactive"
>>> group("CC(C)N(C(=O)SCC(Cl)=C(Cl)Cl)C(C)C")
"active"
>>> group("Cc1cc(C2CC2)nc(Nc2ccccc2)n1")
"active"
>>> group("CC1(C(=O)Nc2ccc(O)c(Cl)c2Cl)CCCCC1")
"inactive"
>>> group("CCOP(=O)(NC(C)C)Oc1ccc(SC)c(C)c1 (stereo unspecified)")
"inactive"
>>> group("CNC(=O)Oc1cccc2c1OC(C)(C)O2")
"inactive"
>>> group("CCNc1nc(Cl)nc(NC(C)(C)C#N)n1")
"inactive"

====

- run.description: CCTE_Shafer_MEA_acute_synchrony_index: CCTE's Neural Acute Assay for Synchrony, Shafer Lab (AID 2284027);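 note: network synchrony index of spontaneous spiking in primary rat cortical neurons on MEAs; fitted for loss of signal so actives lower synchrony relative to DMSO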
Active and inactive are the calls of the source. The calls were made as follows: active = hit-call score of the fitted dose curve at least 0.9, where 1 is the maximum; inactive = score below 0.9.
quantity.name: AC50

>>> result("CC(C)[C@H](C(=O)O[C@H](C#N)c1cccc(Oc2ccccc2)c1)c1ccc(Cl)cc1")
"1.01 µM (active)"
>>> result("CON=C(C(=O)OC)c1ccccc1CON=C(C)c1cccc(C(F)(F)F)c1")
"2.25 µM (active)"
>>> result("CCCOCC(=Nc1ccc(Cl)cc1C(F)(F)F)n1ccnc1")
"2.69 µM (active)"
>>> result("CCOP(=S)(OCC)SCCSCC")
"inactive"
>>> result("CC(=NC#N)N(C)Cc1ccc(Cl)nc1")
"inactive"
>>> result("CCOP(=S)(OCC)Oc1ccc2c(C)c(Cl)c(=O)oc2c1")
"6.95 µM (active)"
>>> result("CN(C)[C@@H]1C(=O)C(C(N)=O)=C(O)[C@@]2(O)C(=O)C3=C(O)c4c(O)cccc4[C@@](C)(O)[C@H]3[C@H](O)[C@@H]12")
"inactive"
>>> result("CCc1cccc(C)c1N(C(=O)CCl)C(C)COC (centres undefined)")
"8.13 µM (active)"
>>> result("CNC(=O)ON=C(SC)C(=O)N(C)C")
"inactive"
>>> result("CC(C)=CC1C(C(=O)OCN2C(=O)C3=C(CCCC3)C2=O)C1(C)C (centres undefined)")
"25.1 µM (active)"
>>> result("CCc1cnc(C2=NC(C)(C(C)C)C(=O)N2)c(C(=O)O)c1 (centres undefined)")
"inactive"
>>> result("CCOP(=O)(NC(C)C)Oc1ccc(SC)c(C)c1 (centres undefined)")
"inactive"
>>> result("CCOP(=S)(Oc1cnc(C(C)(C)C)nc1)OC(C)C (centres undefined)")
"31 µM (active)"
>>> result("O=[N+]([O-])c1cc(C(F)(F)F)c(Cl)c([N+](=O)[O-])c1Nc1ncc(C(F)(F)F)cc1Cl")
"0.481 µM (active)"
>>> result("C#CCC1=C(C)C(OC(=O)C2C(C=C(C)C)C2(C)C)CC1=O (centres undefined)")
"17.8 µM (active)"
>>> result("C[Si](Cn1cncn1)(c1ccc(F)cc1)c1ccc(F)cc1")
"4.26 µM (active)"
>>> result("O=C(O)c1cc(Oc2ccc(C(F)(F)F)cc2Cl)ccc1[N+](=O)[O-]")
"inactive"
>>> result("C[N+]1(C)CCCCC1")
"inactive"
>>> result("CC1=NNC(=O)N(/N=C/c2cccnc2)C1")
"inactive"
